# Tested on: CHO
# Assay Explanation: Induction of cAMP generation in wild-type CHO cells at 10 uM
# Assay type: functional, cell-based
# Setup Conditions: Cricetulus griseus
Calls of active or inactive are those of the source. The calls are words filed in the database; no cut-off is given here.
Result Type: Activity

// worked examples, Activity included
CO[C@H](/C=C(\C)[C@H]1CC[C@H]2C3=CC(=O)[C@H]4CC(=CC[C@H](O)C4)[C@H]3CC[C@]12C)[C@@H](C)O :: inactive
C[C@@H](O)/C=C/[C@](C)(O)[C@H]1CC[C@H]2C3=CC(=O)[C@H]4CC(=CC[C@H](O)C4)[C@H]3CC[C@@]21C :: inactive
C/C(=C\[C@@H](O)[C@H](C)O)[C@H]1CC[C@H]2C3=CC(=O)[C@H]4CC(=CC[C@H](O)C4)[C@H]3CC[C@]12C :: inactive
C/C(=C\[C@H](O)[C@H](C)O)[C@H]1CC[C@H]2C3=CC(=O)[C@H]4CC(=CC[C@H](O)C4)[C@H]3CC[C@]12C :: inactive

Next molecule, please.
IN: Name the reported Activity value associated with the molecule C[C@H](O)/C=C/[C@](C)(O)[C@H]1CC[C@H]2C3=CC(=O)[C@H]4CC(=CC[C@H](O)C4)[C@H]3CC[C@@]21C
OUT: inactive
